target-entity: Glucagon-like peptide 1 receptor (Homo sapiens) (UniProt P43220)
Sequence (P43220 whole entry, looked up): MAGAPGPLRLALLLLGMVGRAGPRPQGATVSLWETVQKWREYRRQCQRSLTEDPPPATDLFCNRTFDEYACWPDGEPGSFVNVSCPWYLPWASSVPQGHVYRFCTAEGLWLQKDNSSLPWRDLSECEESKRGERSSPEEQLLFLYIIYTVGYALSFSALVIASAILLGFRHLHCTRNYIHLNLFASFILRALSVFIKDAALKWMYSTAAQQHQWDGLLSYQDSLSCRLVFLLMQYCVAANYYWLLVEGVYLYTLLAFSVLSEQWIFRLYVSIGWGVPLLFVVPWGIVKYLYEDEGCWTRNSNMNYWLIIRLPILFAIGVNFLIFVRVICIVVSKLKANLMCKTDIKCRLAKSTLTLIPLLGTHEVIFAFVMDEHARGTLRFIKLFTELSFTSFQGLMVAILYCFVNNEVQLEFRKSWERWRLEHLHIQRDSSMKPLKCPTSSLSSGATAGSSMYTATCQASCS
test-description: qHTS of GLP-1 Receptor Agonists: LOPAC Validation (AID 624148);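 also: luminescence from a luciferase reporter switched on by cAMP; higher luminescence signal means agonism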
conditions: GLP-1R agonist cell assay; series mostly up to 46.1 µM
Text: The overall goal of this project was to develop a novel assay for discovering small molecule ligands for class B1 G protein-coupled receptors (GPCRs). Very few agonists (or inverse agonists) with generally weak activity for this entire group of physiologically important receptors are known to date. […] The assay was developed in a "mix and measure" format using a cell-based functional readout. […]
Inconclusive results are not listed. Activity calls are given as the source filed them. Calls follow the shape of the dose curve; as a rule, active = well fitted curve in the direction sought with a large enough effect; inconclusive = small, poorly fitted or top-dose-only effect, or another doubt; inactive = no such curve, though single readings can be large or run the other way.

>  <structure-as-smiles>
CCc1ccc(/C=C2/SC(=S)NC2=O)cc1

>  <outcome>
inactive

$$$$
>  <structure-as-smiles>
C1CCC(N=C(NC23CC4CC(CC(C4)C2)C3)N2CCOCC2)CC1

>  <outcome>
inactive

$$$$
>  <structure-as-smiles>
O=C1c2ccccc2C(=O)c2c(NCCc3ccc(O)cc3)ccc(NCCc3ccc(O)cc3)c21

>  <outcome>
inactive

$$$$
>  <structure-as-smiles>
Cc1cccc(/C=C/c2ccccc2)n1

>  <outcome>
inactive

$$$$
